The reported numbers originate from patent EP4578856A1.

Target: ROCK2 protein (Homo sapiens, UniProt O75116)
Sequence (O75116 whole entry): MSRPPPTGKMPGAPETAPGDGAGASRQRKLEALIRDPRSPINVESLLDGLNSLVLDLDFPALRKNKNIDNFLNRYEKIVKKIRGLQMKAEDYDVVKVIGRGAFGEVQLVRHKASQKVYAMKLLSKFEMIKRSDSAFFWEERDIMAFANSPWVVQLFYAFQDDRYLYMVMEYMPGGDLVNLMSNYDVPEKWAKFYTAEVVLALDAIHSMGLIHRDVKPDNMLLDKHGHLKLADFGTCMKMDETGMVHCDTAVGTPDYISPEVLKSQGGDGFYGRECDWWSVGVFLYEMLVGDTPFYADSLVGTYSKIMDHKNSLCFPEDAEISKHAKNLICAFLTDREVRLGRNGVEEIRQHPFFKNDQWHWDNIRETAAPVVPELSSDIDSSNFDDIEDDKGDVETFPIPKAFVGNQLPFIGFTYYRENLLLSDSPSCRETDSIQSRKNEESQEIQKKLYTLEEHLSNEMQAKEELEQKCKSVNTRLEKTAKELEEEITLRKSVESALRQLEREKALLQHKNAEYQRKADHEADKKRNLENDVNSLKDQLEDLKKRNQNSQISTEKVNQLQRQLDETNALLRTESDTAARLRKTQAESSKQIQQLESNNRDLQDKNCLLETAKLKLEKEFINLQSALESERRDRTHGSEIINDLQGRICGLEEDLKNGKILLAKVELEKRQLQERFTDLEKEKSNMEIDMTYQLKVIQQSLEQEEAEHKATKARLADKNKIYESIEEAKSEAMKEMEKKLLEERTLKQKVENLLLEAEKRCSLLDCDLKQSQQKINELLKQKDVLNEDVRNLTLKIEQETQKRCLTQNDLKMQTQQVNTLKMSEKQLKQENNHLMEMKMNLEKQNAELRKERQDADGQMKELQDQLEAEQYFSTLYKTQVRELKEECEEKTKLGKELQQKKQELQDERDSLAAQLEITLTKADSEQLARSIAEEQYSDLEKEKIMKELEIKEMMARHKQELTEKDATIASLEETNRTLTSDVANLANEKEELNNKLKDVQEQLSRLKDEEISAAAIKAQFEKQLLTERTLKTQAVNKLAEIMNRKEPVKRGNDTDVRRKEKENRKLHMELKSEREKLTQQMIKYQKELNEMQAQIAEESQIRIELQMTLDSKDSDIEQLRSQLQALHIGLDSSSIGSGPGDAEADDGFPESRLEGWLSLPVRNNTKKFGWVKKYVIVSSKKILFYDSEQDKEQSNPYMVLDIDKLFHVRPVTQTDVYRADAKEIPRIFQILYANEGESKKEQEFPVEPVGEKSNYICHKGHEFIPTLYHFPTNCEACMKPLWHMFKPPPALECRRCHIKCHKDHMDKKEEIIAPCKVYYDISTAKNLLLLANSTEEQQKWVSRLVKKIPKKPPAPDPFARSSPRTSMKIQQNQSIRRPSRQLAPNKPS
Assay: Degradation inducing activity of ROCK2 protein in HUVEC cells, Western blotting (Simple Western JESS)
Format: cell-based
Design: endogenous in cells; host or cells: HUVEC (ATCC CRL-1730)
Conditions: HUVEC, 24 h, degradation rate at 1 µM
Experimental: In vitro degradation inducing activity of ROCK2 protein of compounds of Examples was evaluated by Western Blotting (WB). By a test compound, 10 mM DMSO solution was prepared, which was used as a 10 µM test compound solution. […] The western blotting was performed using Simple Western JESS (protein simple). […] The standardized expression level data of the control (DMSO) was taken as 100%, and the degradation rate (%) was calculated from the average standardized expression level data of the test compound. […]
quantity-kind: inhibition at 1 µM

COC[C@H]1CN[C@H](C)CN1CC(=O)N1CC(C)(C)c2ncc(Cc3cccc(OCCOCCOCCOCCOCCOCCNC[C@@H](C(=O)Nc4ccc5cnccc5c4)c4ccccc4)c3)cc21 ... 50 to 75%
COC[C@H]1CN[C@H](C)CN1CC(=O)N1CC(C)(C)c2ncc(Cc3cccc(OCCOCCN[C@H](C)c4ccc(C(=O)Nc5ccncc5)cc4)c3)cc21 ... 25 to 50%

Now look at this one.
I'd like to know its inhibition at 1 µM. The molecule in question is `C[C@@H]1CN(CC(=O)N2CC(C)(C)c3ncc(Cc4ccc(F)cc4)cc32)[C@@H](CN(C)CCOCCOCCOCCOCCOCCOCCOCCNC[C@@H](C(=O)Nc2ccc3cnccc3c2)c2ccccc2)CN1`
25 to 50%

---

Target: UniProt:O75116
Assay: Degradation inducing activity of ROCK2 protein in HUVEC cells, Western blotting (Simple Western JESS)
Format: cell-based
Set-up: endogenous in cells; host or cells: HUVEC (ATCC CRL-1730)
Conditions: HUVEC, 24 h, degradation rate at 1 µM
quantity-kind: inhibition at 1 µM

Known inhibition at 1 µM results, listed for orientation:
COC[C@H]1CN[C@H](C)CN1CC(=O)N1CC(C)(C)c2ncc(Cc3cccc(OCCOCCOCCNC[C@@H](C(=O)Nc4ccc5cnccc5c4)c4ccccc4)c3)cc21 ... 50 to 75%
C[C@@H]1CN(CC(=O)N2CC(C)(C)c3ncc(Cc4ccc(F)cc4)cc32)[C@@H](CN(C)CCOCCOCCN[C@H](C)c2ccc(C(=O)Nc3ccncc3)cc2)CN1 ... < 25%

Hey, quick one: what's inhibition at 1 µM for each of these?
1. C[C@@H]1CN(CC(=O)N2CC(C)(C)c3ncc(Cc4ccc(F)cc4)cc32)[C@@H](CN(C)CCOCCN[C@H](C)c2ccc(C(=O)Nc3ccncc3)cc2)CN1
2. COC[C@H]1CN[C@H](C)CN1CC(=O)N1CC(C)(C)c2ncc(Cc3cccc(OCCOCCOCCOCCOCCOCCOCCOCCN[C@H](C)c4ccc(C(=O)Nc5ccncc5)cc4)c3)cc21

["25 to 50%", "≥ 75%"]

For UniProt:O75116, provide inhibition at 1 µM of `COC[C@H]1CN[C@H](C)CN1CC(=O)N1CC(C)(C)c2ncc(Cc3cccc(OCCOCCOCCOCCNC[C@@H](C(=O)Nc4ccc5cnccc5c4)c4ccccc4)c3)cc21` please.
≥ 75%

---

Biological target: ROCK2 protein (Homo sapiens)
Assay: Degradation inducing activity of ROCK2 protein in HUVEC cells, Western blotting (Simple Western JESS)
Type: cell-based
Set-up: endogenous in cells; host or cells: HUVEC (ATCC CRL-1730)
Settings: HUVEC, 24 h, degradation rate at 10 µM
What inhibition at 10 µM was measured for each of the following?

The following compounds have reported results that may help.
COC[C@H]1CN[C@H](C)CN1CC(=O)N1CC(C)(C)c2ncc(Cc3cccc(OCCOCCOCCOCCOCCOCCOCCN[C@H](Cc4cccc(F)c4)C(=O)Nc4ccc(-c5ccncc5)cc4)c3)cc21 ... 50 to 75%
COC[C@H]1CN[C@H](C)CN1CC(=O)N1CC(C)(C)c2nc(CN(C)CCOCCOCCOCCN[C@H](Cc3cccc(F)c3)C(=O)Nc3ccc(-c4ccncc4)cc3)c(Cc3ccc(F)cc3)cc21 ... 50 to 75%
COC[C@H]1CN[C@H](C)CN1CC(=O)N1CC(C)(C)c2ncc(Cc3ccccc3OCCOCCOCCNC[C@@H](C(=O)Nc3ccc4cnccc4c3)c3ccccc3)cc21 ... ≥ 75%
COC[C@H]1CN[C@H](C)CN1CC(=O)N1CC(C)(C)c2ncc(Cc3cccc(OCCOCCOCCOCCOCCOCCN[C@H](Cc4cccc(F)c4)C(=O)Nc4ccc(-c5ccncc5)cc4)c3)cc21 ... 25 to 50%
C[C@@H]1CN(CC(=O)N2CC(C)(C)c3ncc(Cc4ccc(F)cc4)cc32)[C@@H](CN(C)CCOCCOCCOCCOCCOCCOCCOCCN[C@H](Cc2cccc(F)c2)C(=O)Nc2ccc(-c3ccncc3)cc2)CN1 ... ≥ 75%

The following compounds each have a reported value; give each one's inhibition at 10 µM.
1. C[C@@H]1CN(CC(=O)N2CC(C)(C)c3ncc(Cc4ccc(F)cc4)cc32)[C@@H](CN(C)CCOCCOCCOCCOCCOCCOCCN[C@H](C)c2ccc(C(=O)Nc3ccncc3)cc2)CN1
2. C[C@@H]1CN(CC(=O)N2CC(C)(C)c3ncc(Cc4ccc(F)cc4)cc32)[C@@H](CN(C)CCOCCNC[C@@H](C(=O)Nc2ccc3cnccc3c2)c2ccccc2)CN1
3. COC[C@H]1CN[C@H](C)CN1CC(=O)N1CC(C)(C)c2ncc(Cc3ccccc3OCCOCCOCCOCCOCCOCCOCCN[C@H](Cc3cccc(F)c3)C(=O)Nc3ccc(-c4ccncc4)cc3)cc21
4. COC[C@H]1CN[C@H](C)CN1CC(=O)N1CC(C)(C)c2ncc(Cc3cccc(OCCOCCNC[C@@H](C(=O)Nc4ccc5cnccc5c4)c4ccccc4)c3)cc21
5. COC[C@H]1CN[C@H](C)CN1CC(=O)N1CC(C)(C)c2ncc(Cc3cccc(OCCOCCOCCOCCOCCOCCOCCOCCNC[C@@H](C(=O)Nc4ccc5cnccc5c4)c4ccccc4)c3)cc21

1. ≥ 75%
2. ≥ 75%
3. 50 to 75%
4. ≥ 75%
5. 50 to 75%

---

Molecular target: UniProt:Q05397
Sequence (Q05397 whole entry): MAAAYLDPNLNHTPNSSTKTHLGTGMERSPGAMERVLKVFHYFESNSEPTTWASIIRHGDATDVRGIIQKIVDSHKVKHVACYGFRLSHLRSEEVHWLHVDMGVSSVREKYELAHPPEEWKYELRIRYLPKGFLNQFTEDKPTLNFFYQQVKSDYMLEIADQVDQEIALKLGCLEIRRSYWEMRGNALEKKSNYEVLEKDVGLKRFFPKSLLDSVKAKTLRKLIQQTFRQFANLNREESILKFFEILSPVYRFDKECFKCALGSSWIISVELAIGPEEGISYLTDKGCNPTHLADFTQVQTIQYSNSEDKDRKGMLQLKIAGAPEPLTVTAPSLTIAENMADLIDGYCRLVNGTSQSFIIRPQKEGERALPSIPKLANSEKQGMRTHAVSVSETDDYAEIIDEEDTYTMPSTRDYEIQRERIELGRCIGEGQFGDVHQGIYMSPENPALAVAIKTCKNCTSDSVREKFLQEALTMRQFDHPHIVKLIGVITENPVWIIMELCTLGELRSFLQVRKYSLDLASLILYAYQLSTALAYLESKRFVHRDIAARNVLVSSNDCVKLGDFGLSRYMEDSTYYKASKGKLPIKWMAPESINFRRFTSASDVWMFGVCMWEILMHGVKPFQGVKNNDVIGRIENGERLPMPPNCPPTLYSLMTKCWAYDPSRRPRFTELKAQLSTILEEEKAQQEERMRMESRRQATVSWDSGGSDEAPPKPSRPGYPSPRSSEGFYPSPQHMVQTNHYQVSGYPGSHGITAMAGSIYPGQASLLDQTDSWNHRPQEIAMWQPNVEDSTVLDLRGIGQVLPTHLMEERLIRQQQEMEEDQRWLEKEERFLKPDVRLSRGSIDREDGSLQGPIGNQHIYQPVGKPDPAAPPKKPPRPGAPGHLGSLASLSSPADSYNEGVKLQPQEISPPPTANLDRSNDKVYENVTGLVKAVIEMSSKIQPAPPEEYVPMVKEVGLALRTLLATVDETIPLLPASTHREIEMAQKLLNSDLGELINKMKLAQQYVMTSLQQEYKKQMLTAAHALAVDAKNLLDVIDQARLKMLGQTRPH
Assay: Degradation inducing activity of FAK protein in PA-1 cells, Western blotting (Simple Western JESS)
Format: cell-based
Set-up: endogenous in cells; host or cells: PA-1 (ATCC CRL-1572)
Conditions: at 10 µM, 24 hours
quantity-kind: FAK protein degradation rate

C[C@@H]1CN(CC(=O)N2CC(C)(C)c3ncc(Cc4ccc(F)cc4)cc32)[C@@H](CN(C)CCOCCOCC(=O)Nc2ccc(Nc3ncc(C(F)(F)F)c(NCc4cccc(S(C)(=O)=O)c4)n3)cc2)CN1 ... ≥ 75%
COC[C@H]1CN[C@H](C)CN1CC(=O)N1CC(C)(C)c2ncc(Cc3cccc(OCCN4CCN(CC(=O)Nc5ccc(Nc6ncc(C(F)(F)F)c(NCc7cccc(S(C)(=O)=O)c7)n6)cc5)CC4)c3)cc21 ... ≥ 75%
C[C@@H]1CN(CC(=O)N2CC(C)(C)c3ncc(Cc4ccc(F)cc4)cc32)[C@@H](CN(C)CCOCCOCCOCCOCC(=O)Nc2ccc(Nc3ncc(C(F)(F)F)c(NCc4cccc(S(C)(=O)=O)c4)n3)cc2)CN1 ... ≥ 75%
COC[C@H]1CN[C@H](C)CN1CC(=O)N1CC(C)(C)c2ncc(Cc3ccccc3OCCN3CCN(CC(=O)Nc4ccc(Nc5ncc(C(F)(F)F)c(NCc6cccc(S(C)(=O)=O)c6)n5)cc4)CC3)cc21 ... ≥ 75%
COC[C@H]1CN[C@H](C)CN1CC(=O)N1CC(C)(C)c2nc(CN3CCN(CCOCC(=O)Nc4ccc(Nc5ncc(C(F)(F)F)c(NCc6cccc(S(C)(=O)=O)c6)n5)cc4)CC3)c(Cc3ccc(F)cc3)cc21 ... ≥ 75%

We now examine a further compound.
Hello, I am looking for reported FAK protein degradation rate with UniProt:Q05397 for `C[C@@H]1CN(CC(=O)N2CC(C)(C)c3ncc(Cc4ccc(F)cc4)cc32)[C@@H](CN(C)CCOCCOCCOCC(=O)Nc2ccc(Nc3ncc(C(F)(F)F)c(NCc4cccc(S(C)(=O)=O)c4)n3)cc2)CN1` . Could you help?
≥ 75%

---

Target: ROCK2 protein (Homo sapiens, UniProt O75116)
Assay: Degradation inducing activity of ROCK2 protein in HUVEC cells, Western blotting (Simple Western JESS)
Format: cell-based
Design: endogenous in cells; host or cells: HUVEC (ATCC CRL-1730)
Conditions: HUVEC, 24 h, degradation rate at 1 µM
Can you tell me inhibition at 1 µM for the items I'm about to list?

Before answering, review these 4 worked examples.
COC[C@H]1CN[C@H](C)CN1CC(=O)N1CC(C)(C)c2ncc(Cc3ccccc3OCCOCCOCCOCCOCCOCCOCCN[C@H](C)c3ccc(C(=O)Nc4ccncc4)cc3)cc21 ... ≥ 75%
COC[C@H]1CN[C@H](C)CN1CC(=O)N1CC(C)(C)c2ncc(Cc3ccccc3OCCOCCOCCOCCOCCOCCNC[C@@H](C(=O)Nc3ccc4cnccc4c3)c3ccccc3)cc21 ... 25 to 50%
COC[C@H]1CN[C@H](C)CN1CC(=O)N1CC(C)(C)c2ncc(Cc3cccc(OCCOCCN[C@H](Cc4cccc(F)c4)C(=O)Nc4ccc(-c5ccncc5)cc4)c3)cc21 ... 25 to 50%
COC[C@H]1CN[C@H](C)CN1CC(=O)N1CC(C)(C)c2nc(CN(C)CCOCCOCCN[C@H](C)c3ccc(C(=O)Nc4ccncc4)cc3)c(Cc3ccc(F)cc3)cc21 ... ≥ 75%

Query (molecule): `COC[C@H]1CN[C@H](C)CN1CC(=O)N1CC(C)(C)c2ncc(Cc3ccccc3OCCOCCOCCOCCOCCN[C@H](Cc3cccc(F)c3)C(=O)Nc3ccc(-c4ccncc4)cc3)cc21` ; field requested: inhibition at 1 µM
< 25%
